molecular target: 3-phosphoinositide-dependent protein kinase 1 (Homo sapiens); conditions: at 10 µM
quantity: residual activity
The answer should read as a number with its unit following.

Consider the worked cases shown below.
>  <record-smiles>
Oc1ccc(Nc2nc(-c3ccc(Cl)cc3)cs2)cc1

>  <residual activity>
102%

$$$$
>  <record-smiles>
CO[C@H]1C[C@@H]2CC[C@@H](C)[C@@](O)(O2)C(=O)C(=O)N2CCCC[C@H]2C(=O)O[C@H]([C@H](C)C[C@@H]2CC[C@@H](O)[C@H](OC)C2)CC(=O)[C@H](C)/C=C(\C)[C@@H](O)[C@@H](OC)C(=O)[C@H](C)C[C@H](C)/C=C/C=C/C=C/1C

>  <residual activity>
126%

$$$$
>  <record-smiles>
COc1cc2ncnc(N3CCN(C(=O)Nc4ccc(Oc5ccccc5)cc4)CC3)c2cc1OC

>  <residual activity>
116%

$$$$
>  <record-smiles>
CC(C)n1cnc2c(NCc3ccccc3)nc(NCCCO)nc21

>  <residual activity>
104%

$$$$

Return reported residual activity values for all items listed beneath this line.
1. Cc1cc(Nc2nc(-c3ccccc3)nc3ccccc23)n[nH]1
2. Cc1ccc(S(=O)(=O)/C=C/C#N)cc1
3. CO[C@H]1[C@@H](OC)C[C@H](C)[C@@H](OC)C2=CC(=O)C=C(NC(=O)/C(C)=C/C=C/[C@H](OC)[C@@H](OC(N)=O)/C(C)=C/[C@@H]1C)C2=O
4. Nc1nc(Nc2ccc(S(N)(=O)=O)cc2)nn1C(=S)Nc1c(F)cccc1F
5. CO[C@@H]1[C@H](N(C)C(=O)c2ccccc2)C[C@H]2O[C@]1(C)n1c3ccccc3c3c4c(c5c6ccccc6n2c5c31)C(=O)NC4
6. CC(C)n1cnc2/c(=N/c3cccc(Cl)c3)nc(NCCO)[nH]c21
7. CNc1cc2c(Nc3cccc(Br)c3)ncnc2cn1
8. COc1cc2ncnc(Nc3ccc(O)c(Br)c3)c2cc1OC

39%
108%
96%
0%
1%
81%
64%
76%
